assay: inhibitors of hydroxyurea-induced Chk1 phosphorylation, primary screen, imaging, HeLa, phospho-Chk1 nuclear intensity (AID 1187); conditions: hydroxyurea-induced phospho-Chk1 immunofluorescence imaging, higher = more signal; also: test concentration not given here
Catalogue of z-score values
Give the figure by itself; no unit, no explanation.

C[C@@H](OCc1ccccc1)C1NC(=O)[C@@]23C(=O)N[C@@H](Cc4ccccc4)C2[C@H](C)[C@@]2(C)O[C@H]2C3/C=C/C/C=C\CNC(=O)CNC1=O (stereo partly drawn) ... 0.734
COCCCNC(=O)[C@]1(CCC(=O)OC(C)(C)C)N=C(c2ccc(OCCCO)cc2)O[C@@H]1c1ccccc1 ... -0.288

Turning now to a further record.
Which z-score reading was recorded for the molecule `COC(=O)C(CC#Cc1ccc2c(c1)[C@]1(C(=O)N2)[C@H](C(=O)O)[C@H]2C(=O)O[C@H](c3ccccc3)[C@H](c3ccccc3)N2[C@@H]1c1ccccc1OCCO)C(=O)OC` ?
-0.674

* * *

biological target: Epidermal growth factor receptor (Homo sapiens) (UniProt P00533); assay: EGFR binders on small-molecule microarrays, primary screen, biochemical, small-molecule microarray, 635 nm fluorescence (AID 1104); settings: EGFR binding, higher = more signal;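 also: score merges 667 nm emission intensity with spot signal to noise over triplicate slides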
Sequence (P00533 whole entry, looked up): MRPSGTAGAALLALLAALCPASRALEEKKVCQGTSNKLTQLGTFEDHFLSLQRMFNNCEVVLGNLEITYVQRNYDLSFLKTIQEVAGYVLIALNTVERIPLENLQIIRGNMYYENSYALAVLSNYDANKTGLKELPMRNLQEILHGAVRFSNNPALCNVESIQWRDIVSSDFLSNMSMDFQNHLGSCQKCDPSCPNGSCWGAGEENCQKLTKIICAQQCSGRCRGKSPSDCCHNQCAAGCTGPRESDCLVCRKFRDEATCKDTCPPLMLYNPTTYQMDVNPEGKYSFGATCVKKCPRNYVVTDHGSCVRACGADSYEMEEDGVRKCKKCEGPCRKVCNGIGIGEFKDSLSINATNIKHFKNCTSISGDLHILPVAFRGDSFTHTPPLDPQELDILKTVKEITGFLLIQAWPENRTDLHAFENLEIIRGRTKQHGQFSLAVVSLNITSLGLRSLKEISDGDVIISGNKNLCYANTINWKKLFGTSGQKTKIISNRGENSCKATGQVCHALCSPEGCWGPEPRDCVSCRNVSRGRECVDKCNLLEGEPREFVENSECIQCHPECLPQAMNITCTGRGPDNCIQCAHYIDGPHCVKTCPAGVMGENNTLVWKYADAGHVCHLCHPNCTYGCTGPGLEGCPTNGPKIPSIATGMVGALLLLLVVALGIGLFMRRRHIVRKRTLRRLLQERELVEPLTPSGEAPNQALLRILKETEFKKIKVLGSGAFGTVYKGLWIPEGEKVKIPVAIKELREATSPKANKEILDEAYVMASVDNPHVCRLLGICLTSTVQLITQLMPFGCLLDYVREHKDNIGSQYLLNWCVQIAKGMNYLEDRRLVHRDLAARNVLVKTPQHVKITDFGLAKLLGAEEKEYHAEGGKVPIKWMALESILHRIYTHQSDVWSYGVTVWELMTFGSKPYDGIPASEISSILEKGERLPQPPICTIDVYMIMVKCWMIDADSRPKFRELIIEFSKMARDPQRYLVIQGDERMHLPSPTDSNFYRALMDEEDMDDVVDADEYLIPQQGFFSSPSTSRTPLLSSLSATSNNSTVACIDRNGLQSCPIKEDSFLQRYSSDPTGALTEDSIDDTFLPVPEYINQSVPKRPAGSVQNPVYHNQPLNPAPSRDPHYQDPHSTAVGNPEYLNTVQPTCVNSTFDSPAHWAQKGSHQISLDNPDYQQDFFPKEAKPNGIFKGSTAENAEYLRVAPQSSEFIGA
Class 1: composite z-score at least 0.1. Class 0: composite z-score below 0.1.

Answer whether composite z-score of `CC(C)C[C@@H]1NC(=O)[C@H]2C[C@@H](C(=O)NCCCCCC[N+](C)(C)C)[C@@H](c3cccc(OCCO)c3)N2C1=O` is greater than or equal to 0.1.
1

* * *

Catalogue of z-score values
assay: inhibitors of hydroxyurea-induced Chk1 phosphorylation, primary screen, imaging, HeLa, phospho-Chk1 nuclear intensity (AID 1187); details: hydroxyurea-induced phospho-Chk1 immunofluorescence imaging, higher = more signal; also: test concentration not given here
Give the figure by itself; no unit, no explanation.

Which z-score reading was recorded for the compound `CN(C)CCCNC(=O)[C@@]1(C)c2ccccc2C(=O)N(Cc2cc(C(F)(F)F)cc(C(F)(F)F)c2)[C@H]1c1ccc(CO)cc1` ?
-0.0753

Another compound to check: NC(=O)N1C(=O)C2C(C1=O)C1C=C(c3ccc(CO)cc3)C2C(C2CC2)N1Cc1sc2ccccc2c1Cl (stereo unspecified)
-0.0866

Another compound to check: `C=CCNC(=O)[C@@H]1[C@H]2C(=O)O[C@H](c3ccccc3)[C@H](c3ccccc3)N2[C@H](c2ccccc2OCCO)[C@@]12C(=O)N(C(=O)OCCOC)c1ccc(C#CC3=CCCCC3)cc12`
-0.103

Another compound to check: `COC(=O)[C@@]1(Cc2ccc(F)cc2)[C@H]2c3cc(C(=O)N4CCCC4)n(CCF)c3C[C@H]2CN1C(=O)c1ccccc1`
-0.593

Another compound to check: `C=CCOC(=O)[C@H]1[C@@H]2C(=O)O[C@@H](c3ccccc3)[C@@H](c3ccccc3)N2[C@@H](c2ccc(OCCOC(=O)[C@H]3C[C@H]4C(=O)N[C@@H](Cc5ccccc5)C(=O)N4[C@H]3c3cccc(OCCO)c3)cc2)[C@]12C(=O)Nc1ccc(I)cc12`
-0.0401

Another compound to check: `C[C@]1(C(=O)O)c2ccccc2C(=O)N(Cc2ccccc2)[C@H]1c1ccc(CO)cc1`
0.194

* * *

Catalogue of z-score values
assay: E. coli acrAB mutant growth effects, primary screen, E. coli filamentation inducers, strain DRC39, OD650, 48 h (AID 1179);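 also: screen aims at cell division blockers that make cells filament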; details: E. coli DRC39 delta-acrAB growth, higher = more signal, called active from +8 up or from −8 down
Give the figure by itself; no unit, no explanation.

// worked examples, z-score included
COc1cc2c(cc1OC)CN(C(=O)[C@@H]1[C@H]3C(=O)O[C@H](c4ccccc4)[C@H](c4ccccc4)N3[C@H](c3ccccc3OCCO)[C@@]13C(=O)Nc1ccc(C#CC4(O)CCCCCC4)cc13)CC2 ... 1.01
COCCOC(=O)N1C(=O)[C@@]2(c3cc(C#CC4=CCCCC4)ccc31)[C@H](C(=O)N1CCN(c3ncccn3)CC1)[C@H]1C(=O)O[C@H](c3ccccc3)[C@H](c3ccccc3)N1[C@@H]2c1ccc(O)cc1 ... -0.0604
Cc1ccc(F)cc1S(=O)(=O)N[C@@H]1CCN(Cc2ccc(OC(C)C)cc2)C1 ... -19.8
CCOC(=O)[C@H]1C/C=C/C[C@H](C(=O)OCC)C(=O)O[C@H]2[C@@H](OC)O[C@H](CO)[C@@H](OC(=O)Nc3ccc(OC)cc3)[C@@H]2OC1=O ... 1.25
COc1ccc(C(O)C2C=CC3C(=O)N(Cc4ccccc4)C(=O)C3N2n2cnnc2)c2ccccc12 (stereo unspecified) ... -0.706
CCC[C@@H]1C[C@@]1(CCC)[C@@H](NP(=O)(c1ccccc1)c1ccccc1)c1ccc(Cl)cc1 ... -0.26
CCCC[C@@H]1C[C@H]1[C@@H](NC(=O)c1ccccc1)c1ccc(Cl)cc1 ... -0.324
C=CCNC(=O)[C@@H]1[C@H]2C(=O)O[C@H](c3ccccc3)[C@H](c3ccccc3)N2[C@H](c2ccccc2OCCO)[C@@]12C(=O)N(C(=O)OCCOC)c1ccc(C#CC3=CCCCC3)cc12 ... 0.628

Which z-score reading was recorded for the compound `COCCOC(=O)N1C(=O)[C@@]2(c3cc(C#CCNC(N)=O)ccc31)[C@H](C(=O)N1CCCCCCC1)[C@H]1C(=O)O[C@H](c3ccccc3)[C@H](c3ccccc3)N1[C@@H]2c1ccc(O)cc1` ?
-0.719

Another compound to check: `CCOC(=O)C[C@H]1[C@H](OC(=O)c2ccc(-c3ccccc3)cc2)[C@@H](NC(=O)c2ccc3ccccc3c2)c2cc(OCCCO)ccc2N1C(=O)c1ccc2ccccc2n1`
-0.808

Another compound to check: `C=C(COC)/C(=C/C[C@@H](OC(=O)c1ccncc1)c1ccc(CO)o1)c1cnc2ccccc2c1`
0.0648

Another compound to check: `CN(C)C(=O)[C@@]1(Cc2ccccc2N=[N+]=[N-])COC(c2ccc(OCCCO)cc2)=N1`
1.42

Another compound to check: `CC(C)(C)OC(=O)CC[C@]1(C(=O)N2CCOCC2)N=C(c2ccc(OCCCO)cc2)O[C@H]1c1ccccc1`
0.553

Another compound to check: `CCCNC(=O)[C@@]1(c2ccc([N+](=O)[O-])cc2)CC(=O)N(C2CCCCC2)[C@@H]1c1ccc(CO)cc1I`
-0.303

Another compound to check: `C=C(COC)/C(=C/C[C@@H](OC(=O)c1ccncc1)c1cccc(OCCO)c1)c1cnc2ccccc2c1`
-0.318

Another compound to check: `CCOC(=O)C[C@H]1[C@H](OC(=O)c2ccccc2-c2ccccc2)[C@@H](NC(=O)c2ccc3ccccc3n2)c2cc(OCCCO)ccc2N1C(=O)c1ccc2ccccc2n1`
1.21

Another compound to check: `O=C1NCC(=O)N2[C@@H]1C[C@@H](C(=O)O)[C@H]2c1ccc(O)cc1`
-0.0242

Another compound to check: `O=C(O)[C@H](Cc1ccccc1)n1cc(-c2ccccn2)nn1`
0.23

Where do these numbers come from? They come from PubChem BioAssay.
